I'd appreciate it if you could supply growth values for the items below.
System: MDA-MB-435 melanoma
procedureDetails: NCI-60 one-dose screen, 48 h (100 = growth as untreated, 0 = no growth, -100 = all killed)
testContext: 10 µM
The panel holds about 83,000 compounds, 20% with a hit somewhere; the sample as a whole holds those more often. Calls of active or inactive are those of the source. The calls were made as follows: active = growth percent below 10; inactive = the rest.

Inquiry: Given COc1ccc(NCc2cn(-c3ccc(C(=O)O)cc3)nc2-c2ccc(F)cc2)cc1C(F)(F)F , state its recorded growth.
Reply text: 36.8% (inactive)

Inquiry: Which growth value belongs to Cn1cc(-c2cc(N)n3nc(-c4cn(C)c5ccccc45)cc3n2)c2cc(F)ccc21 ?
Reply text: -81.1% (active)

Inquiry: Reported growth, compound O=C(Nc1ccc(Oc2ncnc3scc(Nc4n[nH]c(=S)s4)c23)cc1)C1(C(=O)Nc2cccc(C(F)(F)F)c2)CC1 : ____
Reply text: 105% (inactive)

Inquiry: I have this compound here, COc1cc(-c2nc3ccc(C)cc3[nH]2)ccc1OCc1nnc(-c2ccccc2Br)o1 , and I need its recorded growth.
Reply text: 85.4% (inactive)

Inquiry: Request the reported growth associated with COc1ccc(Cn2cc(C#N)c(N)c2C(C)=O)c(OC)c1
Reply text: 108% (inactive)

Inquiry: Query (compound): O=C(Nc1ccc(OCC(=O)c2ccc(Cl)cc2)cc1)Nc1ccc(Cl)c(C(F)(F)F)c1 ; field requested: growth
Reply text: 51.5% (inactive)

Inquiry: Report growth for O=C(CC(=O)Nc1ccc(Oc2ncnc3scc(Nc4n[nH]c(=S)s4)c23)cc1)Nc1ccc(Cl)cc1 please.
Reply text: 83.2% (inactive)

Inquiry: What does the data say about its growth? Entry: CCOC(=O)c1ccc(NC(=O)CSC(CC(=O)c2sc(Nc3ccccn3)nc2C)c2ccccc2F)cc1 (centres undefined)
Reply text: -10.7% (active)

Inquiry: What value of growth has been recorded for this entry: COc1ccc(C(=O)COc2ccc(NC(=O)Nc3ccccc3)cc2)cc1
Reply text: 89.4% (inactive)

----------
System: MDA-MB-468 breast
procedureDetails: NCI-60 one-dose screen, 48 h (100 = growth as untreated, 0 = no growth, -100 = all killed)
testContext: 10 µM unless noted
The panel holds about 83,000 compounds, 20% with a hit somewhere; the sample as a whole holds those more often. Activity calls are given as the source filed them. The calls were made as follows: active = growth percent below 10; inactive = the rest.
So I've got a bunch of compounds here, and I need their growth values.

Inquiry: growth lookup needed for c1ccc(OCCC[P+](c2ccccc2)(c2ccccc2)c2ccccc2)cc1 , thanks.
Reply text: -7.95% (active)

Inquiry: For CCCCCCCCCCCCCCCCCC[S+](C)CC (stereo not given) , what is its reported growth?
Reply text: -42.5% (active)

Inquiry: Recorded growth for Cc1ccc(S(=O)(=O)C2=C3C(=C(c4ccccc4)c4ccccc43)CN(S(=O)(=O)c3ccc(C)cc3)C2)cc1 , please?
Reply text: 51% (inactive)

Inquiry: Would you mind telling me what growth value was observed for C[C@H](C(=O)Nc1ccc(S(N)(=O)=O)cc1)S(=O)(=O)c1ccccc1 ?
Reply text: 102% (inactive)

Inquiry: Would you mind telling me what growth value was observed for CCCCNC(=O)Oc1ccc(/C(=C(/C)Cc2ccc(OC)cc2)c2ccc(OCCN3CCCCC3)cc2)cc1 ?
Reply text: 60.1% (inactive)

Inquiry: # query: growth of entry Cc1cc(Nc2ccc(C)c(Cl)c2)n2nc(C(F)(F)F)nc2n1
Reply text: 36.5% (inactive)

Inquiry: Fill blank: measured growth of the compound Cc1cc(N=Nc2ccc(-c3ccc(N=Nc4ccc(O)c(C(=O)O)c4)cc3)cc2)c(N)c(N=Nc2ccc(C(=O)O)cc2)c1N is ____.
Reply text: 92.6% (inactive)

Inquiry: What value of growth has been recorded for this entry: COc1cc(C2C3=C(COC3=O)N(CCO)c3cc4c(cc32)OCO4)cc(OC)c1O (stereo not given)
Reply text: -35.5% (active)

Inquiry: What growth value was documented for this compound, CCCCC1COc2cccc3c(SCC(=O)N(C)c4cccc(Cl)c4)cc[n+]1c23 (stereo not given) ?
Reply text: 104% (inactive)

Inquiry: Report growth for S=c1nc[nH]c2nc[nH]c12 please.
Reply text: 6.65% [50 µM] (active)

The origin of these recorded values is PubChem BioAssay (NCI).
